The entries below are paired with their reported Hepatocyte Rat.
format: in vitro ADME, Rat; settings: clearance in hepatocytes
Reply numerically in %Qh, unit not repeated.

Can you share its Hepatocyte Rat? I mean this compound: CO[C@H](c1ccccc1)[C@@H]1NC(=O)[C@H](C)NC(=O)[C@H](C[C@@H](C)CO)N(C)C(=O)[C@H](Cc2cn(Cc3cn(CCCCCn4cc(Cn5cc(C[C@H]6C(=O)N(C)[C@@H](C[C@@H](C)CO)C(=O)N[C@@H](C)C(=O)N[C@@H]([C@H](OC)c7ccccc7)C(=O)N[C@@H](C(C)C)C(=O)N(C)[C@@H](CC(C)C)C(=O)N[C@@H](C(C)C)C(=O)N6C)c6ccccc65)nn4)nn3)c3ccccc23)N(C)C(=O)[C@H](C(C)C)NC(=O)[C@H](CC(C)C)N(C)C(=O)[C@H](C(C)C)NC1=O [SI-57]
8

Can you share its Hepatocyte Rat? I mean this compound: CCCCCn1cc(C[C@@H]2NC(=O)[C@H](CC(C)C)N(C)C(=O)[C@H](C(C)C)NC(=O)[C@H]([C@H](OC)c3ccccc3)NC(=O)[C@H](C)NC(=O)[C@H](C[C@@H](C)CO)N(C)C(=O)[C@H](Cc3cn(C)c4ccccc34)NC2=O)nn1 [Compound 24]
33

New cases:
Can you share its Hepatocyte Rat? I mean this compound: CO[C@H](c1ccc(OCc2cn(CCCCCn3cc(COc4ccc([C@@H](OC)[C@@H]5NC(=O)[C@H](C)NC(=O)[C@H](C[C@@H](C)CO)N(C)C(=O)[C@H](Cc6cn(C)c7ccccc67)N(C)C(=O)[C@H](C(C)C)NC(=O)[C@H](CC(C)C)N(C)C(=O)[C@H](C(C)C)NC5=O)cc4)nn3)nn2)cc1)[C@@H]1NC(=O)[C@H](C)NC(=O)[C@H](C[C@@H](C)CO)N(C)C(=O)[C@H](Cc2cn(C)c3ccccc23)N(C)C(=O)[C@H](C(C)C)NC(=O)[C@H](CC(C)C)N(C)C(=O)[C@H](C(C)C)NC1=O [SI-66]
10

###

biological target: His6-tagged ClpC1-NTD substrate, M. smegmatis ClpC1P1P2 (UniProt A0R574+P9WPC9); test: biochemical; type: biochemical; details: read-out: DC50, Mean
Sequence (P9WPC9 1-156, looked up, natural form): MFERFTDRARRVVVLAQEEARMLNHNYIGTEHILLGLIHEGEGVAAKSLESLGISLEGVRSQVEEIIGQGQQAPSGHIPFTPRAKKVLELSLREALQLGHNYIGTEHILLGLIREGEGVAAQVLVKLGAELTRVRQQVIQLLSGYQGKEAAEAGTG
Sequence (A0R574 whole entry): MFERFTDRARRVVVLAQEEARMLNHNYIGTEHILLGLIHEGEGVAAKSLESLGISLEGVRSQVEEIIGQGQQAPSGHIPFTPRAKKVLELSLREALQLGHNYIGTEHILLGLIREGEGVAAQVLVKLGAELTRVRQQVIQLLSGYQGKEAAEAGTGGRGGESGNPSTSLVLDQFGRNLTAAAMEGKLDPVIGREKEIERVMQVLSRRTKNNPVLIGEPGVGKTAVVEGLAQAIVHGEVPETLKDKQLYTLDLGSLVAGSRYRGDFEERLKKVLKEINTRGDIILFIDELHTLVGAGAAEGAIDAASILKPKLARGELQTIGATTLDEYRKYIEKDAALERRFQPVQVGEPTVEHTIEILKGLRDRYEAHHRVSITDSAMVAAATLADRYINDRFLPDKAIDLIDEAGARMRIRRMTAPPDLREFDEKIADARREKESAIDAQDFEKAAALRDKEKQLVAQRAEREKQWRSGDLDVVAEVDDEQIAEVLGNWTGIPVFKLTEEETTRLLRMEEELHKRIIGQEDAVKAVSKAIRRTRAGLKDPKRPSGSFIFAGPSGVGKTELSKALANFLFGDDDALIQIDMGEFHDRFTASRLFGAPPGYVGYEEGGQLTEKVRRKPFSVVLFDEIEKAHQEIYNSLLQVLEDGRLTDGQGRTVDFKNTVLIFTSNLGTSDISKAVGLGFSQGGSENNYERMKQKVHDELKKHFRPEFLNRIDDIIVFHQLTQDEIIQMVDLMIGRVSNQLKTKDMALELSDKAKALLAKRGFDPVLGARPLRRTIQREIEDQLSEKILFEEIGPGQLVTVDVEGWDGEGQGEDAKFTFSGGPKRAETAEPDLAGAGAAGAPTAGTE
test.readout: DC50 (µM)
Reply numerically in µM, unit not repeated.

Solved entries (count: 2):
Can you share its DC50? I mean this compound: COC(c1ccc(OCc2cn(CCOCCOCCOCCOCCn3cc(COc4ccc(C(OC)C5NC(=O)C(C)NC(=O)C(CC(C)CO)N(C)C(=O)C(Cc6cn(C)c7ccccc67)N(C)C(=O)C(C(C)C)NC(=O)C(CC(C)C)N(C)C(=O)C(C(C)C)NC5=O)cc4)nn3)nn2)cc1)C1NC(=O)C(C)NC(=O)C(CC(C)CO)N(C)C(=O)C(Cc2cn(C)c3ccccc23)N(C)C(=O)C(C(C)C)NC(=O)C(CC(C)C)N(C)C(=O)C(C(C)C)NC1=O (stereo not shown)
5.2

Can you share its DC50? I mean this compound: COC(c1ccc(OCc2cn(CCOCCOCCOCCOCCn3cc(COc4ccc(C(OC)C5NC(=O)C(C)NC(=O)C(CC(C)CO)N(C)C(=O)C(Cc6cn(C)c7ccccc67)NC(=O)C(C(C)C)NC(=O)C(CC(C)C)N(C)C(=O)C(C(C)C)NC5=O)cc4)nn3)nn2)cc1)C1NC(=O)C(C)NC(=O)C(CC(C)CO)N(C)C(=O)C(Cc2cn(C)c3ccccc23)NC(=O)C(C(C)C)NC(=O)C(CC(C)C)N(C)C(=O)C(C(C)C)NC1=O (stereo not shown)
5.8

New cases:
Can you share its DC50? I mean this compound: CO[C@H](c1ccccc1)[C@@H]1NC(=O)[C@H](C)NC(=O)[C@H](C[C@@H](C)CO)N(C)C(=O)[C@H](Cc2cn(CCCCn3cc(C[C@H]4C(=O)N(C)[C@@H](C[C@@H](C)CO)C(=O)N[C@@H](C)C(=O)N[C@@H]([C@H](OC)c5ccccc5)C(=O)N[C@@H](C(C)C)C(=O)N(C)[C@@H](CC(C)C)C(=O)N[C@@H](C(C)C)C(=O)N4C)c4ccccc43)c3ccccc23)N(C)C(=O)[C@H](C(C)C)NC(=O)[C@H](CC(C)C)N(C)C(=O)[C@H](C(C)C)NC1=O
5.3

###

test system: Caco-2 monolayers; assay: in vitro; settings: influence of Trp-Nα methylation on efflux ratio; matched pair, listed under the methylated partner
*1 amine or outer side, *2 acyl side, *3 side chain or, on linkers, in order; H or OH if unused. Where a SMILES comes first, the peptide text is derived from it. [ ]: non-standard residue; d: D form. X5 = C=CCn1cc(C[C@@H](C(=O)[*:2])N(C)[*:1])c2ccccc21; NMeLeu(5-OH,4R) = CN[C@@H](C[C@@H](C)CO)C(=O)O; Phe(βR-OMe) = CO[C@H](c1ccccc1)[C@H](N)C(=O)O; NMeL = CN[C@@H](CC(C)C)C(=O)O
test.readout: Permeability Correlation Ratio
Answer with a bare number; do not write a unit.

Solved entries (count: 2):
Value wanted: Permeability Correlation Ratio (Caco-2 monolayers) of entry C=CCn1cc(C[C@H]2C(=O)N(C)[C@@H](C[C@@H](C)CO)C(=O)N[C@@H](C)C(=O)N[C@@H]([C@H](OC)c3ccccc3)C(=O)N[C@@H](C(C)C)C(=O)N(C)[C@@H](CC(C)C)C(=O)N[C@@H](C(C)C)C(=O)N2C)c2ccccc21 [SI-60] (cyclo(A[Phe(βR-OMe)]V[NMeL]V[X5][NMeLeu(5-OH,4R)]))
3.2

Value wanted: Permeability Correlation Ratio (Caco-2 monolayers) of entry CO[C@H](c1ccccc1)[C@@H]1NC(=O)[C@H](C)NC(=O)[C@H](C[C@@H](C)CO)N(C)C(=O)[C@H](Cc2cn(C)c3ccccc23)N(C)C(=O)[C@H](Cc2cn(CCCCCn3cc(C[C@@H]4NC(=O)[C@H](CC(C)C)N(C)C(=O)[C@H](C(C)C)NC(=O)[C@H]([C@H](OC)c5ccccc5)NC(=O)[C@H](C)NC(=O)[C@H](C[C@@H](C)CO)N(C)C(=O)[C@H](Cc5cn(C)c6ccccc56)N(C)C4=O)nn3)nn2)NC(=O)[C@H](CC(C)C)N(C)C(=O)[C@H](C(C)C)NC1=O [Compound 22]
1

New cases:
Value wanted: Permeability Correlation Ratio (Caco-2 monolayers) of entry CO[C@H](c1ccccc1)[C@@H]1NC(=O)[C@H](C)NC(=O)[C@H](C[C@@H](C)CO)N(C)C(=O)[C@H](Cc2cn(C)c3ccccc23)N(C)C(=O)[C@H](Cc2cn(CCOCCOCCn3cc(C[C@@H]4NC(=O)[C@H](CC(C)C)N(C)C(=O)[C@H](C(C)C)NC(=O)[C@H]([C@H](OC)c5ccccc5)NC(=O)[C@H](C)NC(=O)[C@H](C[C@@H](C)CO)N(C)C(=O)[C@H](Cc5cn(C)c6ccccc56)N(C)C4=O)nn3)nn2)NC(=O)[C@H](CC(C)C)N(C)C(=O)[C@H](C(C)C)NC1=O [Compound 21]
4.33

###

assay: in vitro; conditions: human, Caco-2
*1 amine or outer side, *2 acyl side, *3 side chain or, on linkers, in order; H or OH if unused. Where a SMILES comes first, the peptide text is derived from it. [ ]: non-standard residue; d: D form. X2 = C#CCn1cc(C[C@@H](C(=O)[*:2])N(C)[*:1])c2ccccc21; NMeTrp(1-Me) = CN[C@@H](Cc1cn(C)c2ccccc12)C(=O)O; X1 = C#CCn1cc(C[C@H](N[*:1])C(=O)[*:2])c2ccccc21; X4 = C=CCO[C@H](c1ccccc1)[C@H](N[*:1])C(=O)[*:2]; NMeLeu(5-OH,4R) = CN[C@@H](C[C@@H](C)CO)C(=O)O; Phe(βR-OMe) = CO[C@H](c1ccccc1)[C@H](N)C(=O)O; Trp(1-Me) = Cn1cc(C[C@H](N)C(=O)O)c2ccccc21; NMeL = CN[C@@H](CC(C)C)C(=O)O; Pra = C#CC[C@H](N)C(=O)O
test.readout: efflux ratio
Answer with a bare number; do not write a unit.

Solved entries (count: 6):
Can you share its efflux ratio? I mean this compound: CO[C@H](c1ccccc1)[C@@H]1NC(=O)[C@H](C)NC(=O)[C@H](C[C@@H](C)CO)N(C)C(=O)[C@H](Cc2cn(C)c3ccccc23)NC(=O)[C@H](Cc2cn(CCOCCOCCn3cc(C[C@@H]4NC(=O)[C@H](CC(C)C)N(C)C(=O)[C@H](C(C)C)NC(=O)[C@H]([C@H](OC)c5ccccc5)NC(=O)[C@H](C)NC(=O)[C@H](C[C@@H](C)CO)N(C)C(=O)[C@H](Cc5cn(C)c6ccccc56)NC4=O)nn3)nn2)NC(=O)[C@H](CC(C)C)N(C)C(=O)[C@H](C(C)C)NC1=O [Compound 11]
2.6

Can you share its efflux ratio? I mean this compound: C#CCn1cc(C[C@@H]2NC(=O)[C@H](C(C)C)NC(=O)[C@H](CC(C)C)N(C)C(=O)[C@H](C(C)C)NC(=O)[C@H]([C@H](OC)c3ccccc3)NC(=O)[C@H](C)NC(=O)[C@H](C[C@@H](C)CO)N(C)C2=O)c2ccccc21 [Compound 5] (cyclo(A[Phe(βR-OMe)]V[NMeL]V[X1][NMeLeu(5-OH,4R)]))
20.4

Can you share its efflux ratio? I mean this compound: C=CCO[C@H](c1ccccc1)[C@@H]1NC(=O)[C@H](C)NC(=O)[C@H](C[C@@H](C)CO)N(C)C(=O)[C@H](Cc2cn(C)c3ccccc23)NC(=O)[C@H](C(C)C)NC(=O)[C@H](CC(C)C)N(C)C(=O)[C@H](C(C)C)NC1=O [Compound 14] (cyclo(A[X4]V[NMeL]V[Trp(1-Me)][NMeLeu(5-OH,4R)]))
12.1

Can you share its efflux ratio? I mean this compound: C#CC[C@@H]1NC(=O)[C@H](CC(C)C)N(C)C(=O)[C@H](C(C)C)NC(=O)[C@H]([C@H](OC)c2ccccc2)NC(=O)[C@H](C)NC(=O)[C@H](C[C@@H](C)CO)N(C)C(=O)[C@H](Cc2cn(C)c3ccccc23)N(C)C1=O [Compound 20] (cyclo(A[Phe(βR-OMe)]V[NMeL][Pra][NMeTrp(1-Me)][NMeLeu(5-OH,4R)]))
11.8

Can you share its efflux ratio? I mean this compound: CO[C@H](c1ccccc1)[C@@H]1NC(=O)[C@H](C)NC(=O)[C@H](C[C@@H](C)CO)N(C)C(=O)[C@H](Cc2cn(C)c3ccccc23)N(C)C(=O)[C@H](Cc2cn(CCCCCn3cc(C[C@@H]4NC(=O)[C@H](CC(C)C)N(C)C(=O)[C@H](C(C)C)NC(=O)[C@H]([C@H](OC)c5ccccc5)NC(=O)[C@H](C)NC(=O)[C@H](C[C@@H](C)CO)N(C)C(=O)[C@H](Cc5cn(C)c6ccccc56)N(C)C4=O)nn3)nn2)NC(=O)[C@H](CC(C)C)N(C)C(=O)[C@H](C(C)C)NC1=O [Compound 22]
0.3

Can you share its efflux ratio? I mean this compound: C#CCn1cc(C[C@H]2C(=O)N(C)[C@@H](C[C@@H](C)CO)C(=O)N[C@@H](C)C(=O)N[C@@H]([C@H](OC)c3ccccc3)C(=O)N[C@@H](C(C)C)C(=O)N(C)[C@@H](CC(C)C)C(=O)N[C@@H](C(C)C)C(=O)N2C)c2ccccc21 [Compound 26] (cyclo(A[Phe(βR-OMe)]V[NMeL]V[X2][NMeLeu(5-OH,4R)]))
2.2

Attention now turns to another entry.
Can you share its efflux ratio? I mean this compound: C#CCn1cc(C[C@@H]2NC(=O)[C@H](C(C)C)NC(=O)[C@H](CC(C)C)N(C)C(=O)[C@H](C(C)C)NC(=O)[C@H](Cc3ccccc3)NC(=O)[C@H](C)NC(=O)[C@H](C[C@@H](C)CO)N(C)C2=O)c2ccccc21 [SI-72] (cyclo(AFV[NMeL]V[X1][NMeLeu(5-OH,4R)]))
61.4

The measured values listed here are drawn from paper PMC10914731.
